target: Human M3 receptor (Homo sapiens (Human), UniProt P20309); assay: M3 receptor radioligand binding assay; details: M3 Receptor radioligand binding assay; read-out: M3 IC50 Activity
Sequence (P20309 whole entry): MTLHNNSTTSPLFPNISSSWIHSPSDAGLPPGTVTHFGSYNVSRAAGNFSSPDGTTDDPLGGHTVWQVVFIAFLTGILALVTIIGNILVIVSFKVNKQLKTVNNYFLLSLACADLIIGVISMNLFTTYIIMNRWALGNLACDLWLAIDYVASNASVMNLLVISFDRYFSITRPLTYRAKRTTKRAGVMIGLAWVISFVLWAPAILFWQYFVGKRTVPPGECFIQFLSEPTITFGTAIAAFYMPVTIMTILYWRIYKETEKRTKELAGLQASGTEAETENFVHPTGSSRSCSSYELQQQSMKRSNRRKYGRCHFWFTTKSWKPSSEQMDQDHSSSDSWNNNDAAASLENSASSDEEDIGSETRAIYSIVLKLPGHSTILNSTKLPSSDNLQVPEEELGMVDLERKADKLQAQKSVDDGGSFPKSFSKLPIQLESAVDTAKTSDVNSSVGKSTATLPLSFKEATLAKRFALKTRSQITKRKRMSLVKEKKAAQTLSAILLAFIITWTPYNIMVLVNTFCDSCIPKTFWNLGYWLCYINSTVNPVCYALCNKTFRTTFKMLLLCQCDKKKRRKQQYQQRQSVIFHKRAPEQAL
pIC50: −log10 of the molar value.
experimental endpoint: pIC50

{"columns": ["compound", "data value"],
 "data": [
  ["COc1ccc([C@H](Cc2c(Cl)c[n+]([O-])cc2Cl)OC(=O)c2ccc(CN3CC(C(=O)O[C@@H]4CCN(C)C4)(c4ccccc4)C3)s2)cc1OC", "8.00 to 9.00"],
  ["COc1ccc([C@H](Cc2c(Cl)c[n+]([O-])cc2Cl)OC(=O)c2ccc(CNCC(C)(C(=O)OC3CCN(C)CC3)c3ccccc3)s2)cc1OC (some centres unmarked) [Example 24]", "7.00 to 8.00"],
  ["COc1ccc([C@H](Cc2c(Cl)c[n+]([O-])cc2Cl)OC(=O)c2ccc(CNC3CC(C(=O)OC4CCN(C)CC4)(c4ccccc4)C3)s2)cc1OC (single isomer, unassigned) [Example 35]", "8.00 to 9.00"],
  ["COc1ccc([C@H](Cc2c(Cl)c[n+]([O-])cc2Cl)OC(=O)c2ccc(CNCC(C)(C(=O)OCCN(C)C)c3ccccc3)s2)cc1OC (some centres unmarked) [Example 9]", "7.00 to 8.00"],
  ["COc1ccc([C@H](Cc2c(Cl)c[n+]([O-])cc2Cl)OC(=O)c2ccc(CNCC(C)(C(=O)OC3CCN(C)CC3)c3ccccc3)s2)cc1OC (some centres unmarked) [Example 25]", "7.00 to 8.00"]
]}

INPUT: Reported pIC50 for COc1ccc([C@H](Cc2c(Cl)c[n+]([O-])cc2Cl)OC(=O)c2ccc(CNC3CC(C(=O)OC4CCN(C)CC4)(c4ccccc4)C3)s2)cc1OC (some centres unmarked) [Example 32] : what is it?
OUTPUT: 7.00 to 8.00

INPUT: Name the recorded pIC50 for COc1ccc([C@H](Cc2c(Cl)c[n+]([O-])cc2Cl)OC(=O)c2ccc(CNCC(C(=O)O[C@@H]3CCN(C)C3)c3ccccc3)s2)cc1OC (some centres unmarked) .
OUTPUT: 7.00 to 8.00

INPUT: Tell me the measured pIC50 of COc1ccc([C@H](Cc2c(Cl)c[n+]([O-])cc2Cl)OC(=O)c2ccc(CNCC(C)(C(=O)OCCN(C)C)c3ccccc3)s2)cc1OC (some centres unmarked) [Example 29] , please.
OUTPUT: 7.00 to 8.00

###

target: Human M3 receptor (Homo sapiens (Human), UniProt P20309); assay: M3 receptor radioligand binding assay; settings: M3 IC50 Activity
experimental endpoint: IC50

Below, 5 compounds whose answers are already recorded.
{"columns": ["compound", "IC50"],
 "data": [
  ["COc1ccc([C@H](Cc2c(Cl)c[n+]([O-])cc2Cl)OC(=O)c2ccc(CNCC(C(=O)O[C@H]3CN4CCC3CC4)c3ccccc3)s2)cc1OC (stereo partly shown) [Example 1]", "1 to 10 nM"],
  ["COc1ccc([C@H](Cc2c(Cl)c[n+]([O-])cc2Cl)OC(=O)c2ccc(CNCC(C(=O)O[C@H]3CN4CCC3CC4)c3ccccc3)s2)cc1OC (single isomer, unassigned) [Example 21]", "1 to 10 nM"],
  ["COc1ccc([C@H](Cc2c(Cl)c[n+]([O-])cc2Cl)OC(=O)c2ccc(CNCC(C)(C(=O)O[C@H]3CN4CCC3CC4)c3ccccc3)s2)cc1OC (stereo partly shown) [Example 31]", "10 to 100 nM"],
  ["COc1ccc([C@H](Cc2c(Cl)c[n+]([O-])cc2Cl)OC(=O)c2ccc(CNC3CC(C(=O)O[C@H]4CN5CCC4CC5)(c4ccccc4)C3)s2)cc1OC (stereo partly shown) [Example 33]", "1 to 10 nM"],
  ["COc1ccc([C@H](Cc2c(Cl)c[n+]([O-])cc2Cl)OC(=O)c2ccc(CCN3CCC(C(=O)O[C@H]4CN5CCC4CC5)(c4ccccc4)CC3)cc2)cc1OC [Example 12]", "1 to 10 nM"]
]}

INPUT: Given the entry COc1ccc([C@H](Cc2c(Cl)c[n+]([O-])cc2Cl)OC(=O)c2ccc(CNCC(C(=O)O[C@H]3CN4CCC3CC4)c3ccccc3)s2)cc1OC (single isomer, unassigned) [Example 20] , report its measured IC50.
OUTPUT: < 1 nM

INPUT: Which IC50 is listed for COc1ccc([C@H](Cc2c(Cl)c[n+]([O-])cc2Cl)OC(=O)c2ccc(CN3CCC(C(=O)O[C@H]4CN5CCC4CC5)(c4ccccc4)CC3)cc2)cc1OC [Example 11] ?
OUTPUT: 10 to 100 nM

INPUT: So what's the measured IC50 for this one? COc1ccc([C@H](Cc2c(Cl)c[n+]([O-])cc2Cl)OC(=O)c2ccc(CN(C)CC(C)(C(=O)O[C@H]3CN4CCC3CC4)c3ccccc3)s2)cc1OC (stereo partly shown) [Example 10]
OUTPUT: 1 to 10 nM

INPUT: For COc1ccc([C@H](Cc2c(Cl)c[n+]([O-])cc2Cl)OC(=O)c2ccc(CNCC(C(=O)O[C@H]3CN4CCC3CC4)c3ccccc3)cc2)cc1OC (stereo partly shown) [Example 2] , what is its reported IC50?
OUTPUT: 1 to 10 nM

INPUT: Would you mind telling me what IC50 value was observed for COc1ccc([C@H](Cc2c(Cl)c[n+]([O-])cc2Cl)OC(=O)c2ccc(CNCC(C)(C(=O)O[C@H]3CN4CCC3CC4)c3ccccc3)s2)cc1OC (stereo partly shown) [Example 30] ?
OUTPUT: 1 to 10 nM
